The values you see were collected from ChEMBL document CHEMBL5113380.

tested.on: Glutamate receptor ionotropic AMPA (Homo sapiens, UniProt P42261+P42262+P42263+P48058)
test.summary: Displacement of [3H]kainate from AMPA receptor (unknown origin)
Assay type: protein-complex assay
Entries whose IC50 is below 400 nM take 1 (yes); entries at or above 400 nM take 0 (no).

Examples from the recorded data:
CN1CCc2c([N+](=O)[O-])cc3[nH]c(=O)c(=O)[nH]c3c2C1; 1 (yes)
CN1CCc2c(c([N+](=O)[O-])cc3[nH]c(=O)c(=O)[nH]c23)C1; 1 (yes)
CC(C)CCN1CCc2c(Br)cc3nc(O)c(O)nc3c2C1; 0 (no)
CCC(C)N1CCc2c(Br)cc3nc(O)c(O)nc3c2C1 (stereo not given); 0 (no)

# evaluate next
Exercise: Given the entry CCC(C)CN1CCc2c(Br)cc3nc(O)c(O)nc3c2C1 (stereo not given) , would its reported IC50 be below 400 nM?
Solution: 0 (no)
